- System: human monoclonal antibody CR57
- Type: binding
We label by threshold. Values of Binding of CR57 to linear peptide (PEPSCAN-ELISA signal) strictly beneath 80 are criterion met. Values of 80 and up are criterion not met.

Exercise: Does this sequence meet the criterion Binding of CR57 to linear peptide (PEPSCAN-ELISA signal) < 80? CRAAYNWKMAGDPRY
Key: criterion not met

Exercise: How about this sequence: RSDEIEHLVVEELVR
Key: criterion not met

Exercise: How about this sequence: VAVSSTYCSTNHDYT
Key: criterion not met

Exercise: How about this sequence: PIDIHHLSCPNNLVV
Key: criterion met

Exercise: How about this sequence: PYPDYRWLRTVKTTK
Key: criterion met

Exercise: How about this sequence: TNHDYTIWMPENPRL
Key: criterion met

Exercise: How about this sequence: GSETCGFVDERGLYK
Key: criterion met

* * *

- Test system: human monoclonal antibody CRJB
- Assay type: binding
Assignment: determine reported Binding of CRJB to linear peptide (PEPSCAN-ELISA signal) for the given sequences.
Answer using only a numeral; do not append any unit.

Exercise: Query (sequence): FVDERGLYKSLKGAC ; field requested: Binding of CRJB to linear peptide (PEPSCAN-ELISA signal)
Key: 121

Exercise: How about this sequence: HPHVNGVFFNGIILG
Key: 138

Exercise: How about this sequence: TWVAMQTSNETKWCP
Key: 118

Exercise: How about this sequence: FTNSRGKRASKGSET
Key: 111

Exercise: How about this sequence: AENYTNFVGYVTTTF
Key: 106

Exercise: How about this sequence: DIHHLSCPNNLVVED
Key: 96

Exercise: How about this sequence: GVVTEAENYTNFVGY
Key: 111

Exercise: How about this sequence: YTNFVGYVTTTFKRK
Key: 104

Exercise: How about this sequence: GFTCTGVVTEAENYT
Key: 86

Exercise: How about this sequence: KRKHFRPTPDACRAA
Key: 93

Exercise: How about this sequence: EECLDALESIMTTKS
Key: 120

Exercise: How about this sequence: KFPIYTILDKLGPWS
Key: 97

Exercise: How about this sequence: RVFPSGKCSGVAVSS
Key: 110

Exercise: How about this sequence: ESIMTTKSVSFRRLS
Key: 111

Exercise: How about this sequence: HDYTIWMPENPRLGM
Key: 125

Exercise: How about this sequence: TKSVSFRRLSHLRKL
Key: 125

Exercise: How about this sequence: RASKGSETCGFVDER
Key: 110

Exercise: How about this sequence: IMTTKSVSFRRLSHL
Key: 101

Exercise: How about this sequence: CKLKLCGVLGLRLMD
Key: 111

Exercise: How about this sequence: GYILAIKMNGFTCTG
Key: 90

Exercise: How about this sequence: LVHPLADPSTVFKDG
Key: 174

Exercise: How about this sequence: HSRVFPSGKCSGVAV
Key: 118

Exercise: How about this sequence: DEGCTNLSGFSYMEL
Key: 23

Exercise: How about this sequence: YKSVRTWNEILPSKG
Key: 137

Exercise: How about this sequence: YTILDKLGPWSPIDI
Key: 114

Exercise: How about this sequence: VSFRRLSHLRKLVPG
Key: 111

Exercise: How about this sequence: NPYPDYRWLRTVKTT
Key: 102

Exercise: How about this sequence: GFGKAYTIFNKTLME
Key: 123

Exercise: How about this sequence: GVFFNGIILGPDGNV
Key: 116

Exercise: How about this sequence: TTKESLVIISPSVAD
Key: 121

Exercise: How about this sequence: LHDFRSDEIEHLVVE
Key: 115

Exercise: How about this sequence: LAIKMNGFTCTGVVT
Key: 130

Exercise: How about this sequence: NSRGKRASKGSETCG
Key: 100

Exercise: How about this sequence: TILDKLGPWSPIDIH
Key: 96

Exercise: How about this sequence: CLRVGGRCHPHVNGV
Key: 132

Exercise: How about this sequence: LVVEELVRKREECLD
Key: 100

Exercise: How about this sequence: MEADAHYKSVRTWNE
Key: 129

Exercise: How about this sequence: TNLSGFSYMELKVGY
Key: 106

Exercise: How about this sequence: SFRRLSHLRKLVPGF
Key: 110

Exercise: How about this sequence: GKRASKGSETCGFVD
Key: 124

Exercise: How about this sequence: RTVKTTKESLVIISP
Key: 120

Exercise: How about this sequence: ILPSKGCLRVGGRCH
Key: 113

Exercise: How about this sequence: LPSKGCLRVGGRCHP
Key: 119

Exercise: How about this sequence: VADLDPYDRSLHSRV
Key: 113

Exercise: How about this sequence: DACRAAYNWKMAGDP
Key: 113

Exercise: How about this sequence: PDGNVLIPEMQSSLL
Key: 129

Exercise: How about this sequence: DPRYEESLHNPYPDY
Key: 110

Exercise: How about this sequence: TFKRKHFRPTPDACR
Key: 111

Exercise: How about this sequence: SLHSRVFPSGKCSGV
Key: 111

Exercise: How about this sequence: REECLDALESIMTTK
Key: 110

Exercise: How about this sequence: LRLMDGTWVAMQTSN
Key: 114

Exercise: How about this sequence: VIPLVHPLADPSTVF
Key: 141

Exercise: How about this sequence: PDACRAAYNWKMAGD
Key: 124

Exercise: How about this sequence: VGYILAIKMNGFTCT
Key: 93

Exercise: How about this sequence: GCTNLSGFSYMELKV
Key: 114

Exercise: How about this sequence: LVIISPSVADLDPYD
Key: 107

Exercise: How about this sequence: QQHMELLESSVIPLV
Key: 134

Exercise: How about this sequence: YMELKVGYILAIKMN
Key: 114

Exercise: How about this sequence: FFNGIILGPDGNVLI
Key: 143

Exercise: How about this sequence: MPENPRLGMSCDIFT
Key: 121

Exercise: How about this sequence: ADAHYKSVRTWNEIL
Key: 100

Exercise: How about this sequence: KGACKLKLCGVLGLR
Key: 111

Exercise: How about this sequence: CLDALESIMTTKSVS
Key: 146

Exercise: How about this sequence: WSPIDIHHLSCPNNL
Key: 106

Exercise: How about this sequence: AHYKSVRTWNEILPS
Key: 160

Exercise: How about this sequence: RVGGRCHPHVNGVFF
Key: 143

Exercise: How about this sequence: YDRSLHSRVFPSGKC
Key: 818

Exercise: How about this sequence: IILGPDGNVLIPEMQ
Key: 118

Exercise: How about this sequence: LCGVLGLRLMDGTWV
Key: 138

Exercise: How about this sequence: CSGVAVSSTYCSTNH
Key: 165

Exercise: How about this sequence: PDYRWLRTVKTTKES
Key: 85

Exercise: How about this sequence: ILAIKMNGFTCTGVV
Key: 103

Exercise: How about this sequence: DGNVLIPEMQSSLLQ
Key: 134

Exercise: How about this sequence: DPYDRSLHSRVFPSG
Key: 120

Exercise: How about this sequence: EMQSSLLQQHMELLE
Key: 129
